B1: MYBL2 (parent)
chain: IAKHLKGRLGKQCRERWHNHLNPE

# Variants of: B1
# measurement.protocol: protein stability index of a GFP-peptide fusion (GPS, HEK-293T) (PSI 1-6); higher = more stable;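 note: lentivirally expressed fusions sorted by FACS into six bins by GFP to DsRed ratio, PSI derived from sequencing read proportions per bin multiplied by bin number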
# protocol.conditions: c terminus: a fixed tail appended
Listing: protein stability index of selected variants

{"record.sequence": "IASHLKGRLGKQCRERWHNHLNPE [K3S]", "protein stability index": 1.44}
{"record.sequence": "IAKHLKGRLPKQCRERWHNHLNPE [G10P]", "protein stability index": 2.22}
{"record.sequence": "IAKHLKGALGKQCRERWHNHLNPE [R8A]", "protein stability index": 1.97}
{"record.sequence": "IAKHLKFRLGKQCRERWHNHLNPE [G7F]", "protein stability index": 2.25}
{"record.sequence": "IAKQLKGRLGKQCRERWHNHLNPE [H4Q]", "protein stability index": 2.27}
{"record.sequence": "IAKHLKGRLGKQCRERWHNHLNPG [E24G]", "protein stability index": 3}
{"record.sequence": "IAKHLKGRLGKQCRERWYNHLNPE [H18Y]", "protein stability index": 1.67}
{"record.sequence": "IAKHLKGRLGKQCSERWHNHLNPE [R14S]", "protein stability index": 1.5}
{"record.sequence": "IAKHPKGRLGKQCRERWHNHLNPE [L5P]", "protein stability index": 2.07}
{"record.sequence": "IAKHLKGRLGKQCRERWHNHLNAE [P23A]", "protein stability index": 2.62}
{"record.sequence": "IAKHLKGRLGKQCRHRWHNHLNPE [E15H]", "protein stability index": 1.25}
{"record.sequence": "IAKHLKGRLRKQCRERWHNHLNPE [G10R]", "protein stability index": 1.67}
{"record.sequence": "IAKHLKPRLGKQCRERWHNHLNPE [G7P]", "protein stability index": 2.14}
{"record.sequence": "IAKHLKGRLGKQCRERWHNHLNSE [P23S]", "protein stability index": 1.49}
{"record.sequence": "IAKHLKGRLGKQCRMRWHNHLNPE [E15M]", "protein stability index": 3.02}
{"record.sequence": "IEKHLKGRLGKQCRERWHNHLNPE [A2E]", "protein stability index": 2.16}
{"record.sequence": "IAKELKGRLGKQCRERWHNHLNPE [H4E]", "protein stability index": 2.04}
{"record.sequence": "IAKHLKGRLGKQCRLRWHNHLNPE [E15L]", "protein stability index": 2.48}
{"record.sequence": "IAKHLHGRLGKQCRERWHNHLNPE [K6H]", "protein stability index": 1.91}
{"record.sequence": "IAKHLKGRLGKQCRERWHNHDNPE [L21D]", "protein stability index": 2.17}
{"record.sequence": "IAKHLKGRLGKQCRERWTNHLNPE [H18T]", "protein stability index": 2.97}
{"record.sequence": "IAKHLKGRLGKQCRERWHNSLNPE [H20S]", "protein stability index": 1.54}
{"record.sequence": "IAKHLKGRLGKQCRERWHQHLNPE [N19Q]", "protein stability index": 2.02}
{"record.sequence": "IAKHLKHRLGKQCRERWHNHLNPE [G7H]", "protein stability index": 3.17}
{"record.sequence": "IAKHLKGRLSKQCRERWHNHLNPE [G10S]", "protein stability index": 1.99}
{"record.sequence": "IAKHLKGRLGKQMRERWHNHLNPE [C13M]", "protein stability index": 2.01}
{"record.sequence": "IAKHLPGRLGKQCRERWHNHLNPE [K6P]", "protein stability index": 2.03}
{"record.sequence": "IAKHLKGRLGKQCIERWHNHLNPE [R14I]", "protein stability index": 1.83}
{"record.sequence": "IAKHLKQRLGKQCRERWHNHLNPE [G7Q]", "protein stability index": 1.65}
{"record.sequence": "IAKMLKGRLGKQCRERWHNHLNPE [H4M]", "protein stability index": 1.83}
{"record.sequence": "GAKHLKGRLGKQCRERWHNHLNPE [I1G]", "protein stability index": 2.4}
{"record.sequence": "IAKHLKGRLGKQVRERWHNHLNPE [C13V]", "protein stability index": 1.97}
{"record.sequence": "IAKHLKGRLGKQCRERWHEHLNPE [N19E]", "protein stability index": 2.24}
{"record.sequence": "IAKHLKGRLGKQCRERAHNHLNPE [W17A]", "protein stability index": 2.35}
{"record.sequence": "IAKHLKGRLGKQCRELWHNHLNPE [R16L]", "protein stability index": 2.06}
{"record.sequence": "IAYHLKGRLGKQCRERWHNHLNPE [K3Y]", "protein stability index": 2.17}
{"record.sequence": "IAKHLKGRSGKQCRERWHNHLNPE [L9S]", "protein stability index": 2.55}
{"record.sequence": "IAKHLKGRLGDQCRERWHNHLNPE [K11D]", "protein stability index": 2.47}
{"record.sequence": "IAKHLKGRLGKQCRERQHNHLNPE [W17Q]", "protein stability index": 2.71}
{"record.sequence": "IAKHLKGRLGKQCRERWHNGLNPE [H20G]", "protein stability index": 1.87}
{"record.sequence": "IAKHLKGRLGKQCRERTHNHLNPE [W17T]", "protein stability index": 2.69}
{"record.sequence": "IAKHLKGRLGKQCRVRWHNHLNPE [E15V]", "protein stability index": 2.12}
{"record.sequence": "IAKHLKGRPGKQCRERWHNHLNPE [L9P]", "protein stability index": 2.28}
{"record.sequence": "IAKHLKGRLGKQCRERWHNHLNME [P23M]", "protein stability index": 2.21}
{"record.sequence": "IAKHLKGRLGKQCRFRWHNHLNPE [E15F]", "protein stability index": 2.26}
{"record.sequence": "IWKHLKGRLGKQCRERWHNHLNPE [A2W]", "protein stability index": 1.64}
{"record.sequence": "IAKLLKGRLGKQCRERWHNHLNPE [H4L]", "protein stability index": 2.33}
{"record.sequence": "IAHHLKGRLGKQCRERWHNHLNPE [K3H]", "protein stability index": 2.32}
{"record.sequence": "IAKHLKGRLGKQCRERWHNHLNHE [P23H]", "protein stability index": 2.1}
{"record.sequence": "IAKHLKGRLGKQARERWHNHLNPE [C13A]", "protein stability index": 2.55}
{"record.sequence": "IAKHLKGRLGKQCKERWHNHLNPE [R14K]", "protein stability index": 1.87}
{"record.sequence": "IAKHLKGRLGKQCRERWHNHFNPE [L21F]", "protein stability index": 1.91}
{"record.sequence": "IAKHLKGRLGKQCRERWHNHLEPE [N22E]", "protein stability index": 2.42}
{"record.sequence": "IAKHLKGRLGKQCPERWHNHLNPE [R14P]", "protein stability index": 2.64}
{"record.sequence": "IAKHLKGWLGKQCRERWHNHLNPE [R8W]", "protein stability index": 2.73}
{"record.sequence": "IAKHLKGPLGKQCRERWHNHLNPE [R8P]", "protein stability index": 2.65}
{"record.sequence": "IAKHLKGRLGKQCRERWHNHLNRE [P23R]", "protein stability index": 2.11}
{"record.sequence": "IAKHLKGRLGKQCRGRWHNHLNPE [E15G]", "protein stability index": 1.9}
{"record.sequence": "IAKHLKGMLGKQCRERWHNHLNPE [R8M]", "protein stability index": 1.74}
{"record.sequence": "IAKHCKGRLGKQCRERWHNHLNPE [L5C]", "protein stability index": 1.9}
{"record.sequence": "IAKHLKGRLGKQCRERWHNELNPE [H20E]", "protein stability index": 2.35}
{"record.sequence": "IAKHLKGRLGKQDRERWHNHLNPE [C13D]", "protein stability index": 2.57}
{"record.sequence": "IAKHLKGRFGKQCRERWHNHLNPE [L9F]", "protein stability index": 1.7}
{"record.sequence": "IAKHLMGRLGKQCRERWHNHLNPE [K6M]", "protein stability index": 1.97}
{"record.sequence": "IAKHLKGRLGKQCRERWRNHLNPE [H18R]", "protein stability index": 1.56}
{"record.sequence": "IAKHLKGRLGKQCRESWHNHLNPE [R16S]", "protein stability index": 1.85}
{"record.sequence": "IAKHLKGRLGKQCRSRWHNHLNPE [E15S]", "protein stability index": 1.23}
{"record.sequence": "IAKHLKGRLGYQCRERWHNHLNPE [K11Y]", "protein stability index": 2.02}
{"record.sequence": "IAKYLKGRLGKQCRERWHNHLNPE [H4Y]", "protein stability index": 4.85}
{"record.sequence": "IAKHLKGRLGKQCRERWHNHLNPR [E24R]", "protein stability index": 2.75}
{"record.sequence": "IAKHLKGRLGKQCRERWCNHLNPE [H18C]", "protein stability index": 1.8}
{"record.sequence": "IAKHLKGRLGKQCWERWHNHLNPE [R14W]", "protein stability index": 1.82}
{"record.sequence": "IAKHIKGRLGKQCRERWHNHLNPE [L5I]", "protein stability index": 1.75}
{"record.sequence": "IAKHLKGRYGKQCRERWHNHLNPE [L9Y]", "protein stability index": 2.24}
{"record.sequence": "IAKHLKGRLGKQCRERWHNFLNPE [H20F]", "protein stability index": 1.92}
{"record.sequence": "IAKHLKGRLGKQCRERWHNHLNDE [P23D]", "protein stability index": 1.89}
{"record.sequence": "IAKHLKGRLGAQCRERWHNHLNPE [K11A]", "protein stability index": 2.06}
{"record.sequence": "IAKHLKGRLNKQCRERWHNHLNPE [G10N]", "protein stability index": 2.52}
{"record.sequence": "IAKHLKGRGGKQCRERWHNHLNPE [L9G]", "protein stability index": 2.45}
{"record.sequence": "IAKHLLGRLGKQCRERWHNHLNPE [K6L]", "protein stability index": 4.25}

Each recorded value in this set is attributed to the supplement of paper PMC10567573.
